The reported measurements were obtained from ChEMBL document CHEMBL1141509.

Biological target: RAC-beta serine/threonine-protein kinase (Homo sapiens)
Sequence (P31751 whole entry): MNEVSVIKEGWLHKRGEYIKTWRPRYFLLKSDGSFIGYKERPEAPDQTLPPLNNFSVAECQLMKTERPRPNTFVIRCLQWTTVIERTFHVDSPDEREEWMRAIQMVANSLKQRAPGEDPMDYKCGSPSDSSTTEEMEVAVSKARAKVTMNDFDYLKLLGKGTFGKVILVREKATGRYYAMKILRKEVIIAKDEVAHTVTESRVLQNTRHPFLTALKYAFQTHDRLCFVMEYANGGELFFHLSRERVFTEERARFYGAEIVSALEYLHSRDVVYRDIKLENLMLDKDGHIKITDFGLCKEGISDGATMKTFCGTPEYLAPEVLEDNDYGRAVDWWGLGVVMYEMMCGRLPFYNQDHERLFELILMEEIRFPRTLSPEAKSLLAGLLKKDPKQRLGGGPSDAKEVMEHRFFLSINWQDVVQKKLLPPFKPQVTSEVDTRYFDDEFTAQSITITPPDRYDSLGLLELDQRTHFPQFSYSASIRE
Experiment: Inhibition of Akt2
measured quantity: IC50 (nM)
Note: unit nM is implicit; provide only the numeric part.

chemical string	IC50, nM
N#Cc1ncc2cc(-c3ccccc3)c(-c3ccc(CN4CCC(c5nnc(-c6ccccn6)[nH]5)CC4)cc3)nc2n1	59
CSc1ncc2cc(-c3ccccc3)c(-c3ccc(CNCCc4c[nH]cn4)cc3)nc2n1	1240
CSc1ncc2cc(-c3ccccc3)c(-c3ccc(CN4CCC(c5nnc(-c6ccccn6)[nH]5)CC4)cc3)nc2n1	26

# ---- query molecule ----
Asked: Reported IC50 for CSc1ncc2cc(-c3ccccc3)c(-c3ccc(CNCCC(=O)c4ccccc4N)cc3)nc2n1 : what is it?
Given back: 90
